The values you see were collected from patent US20250376535A1.

molecular target: T1, 4-1BB Fc (human, UniProt Q07011 24-183); experiment: ELISA, 4-1BB Fc coated, VHH at 0.5 nM
T1 construct: also called rh-41BB; 41BB-hFc
T1 sequence (Q07011 24-183): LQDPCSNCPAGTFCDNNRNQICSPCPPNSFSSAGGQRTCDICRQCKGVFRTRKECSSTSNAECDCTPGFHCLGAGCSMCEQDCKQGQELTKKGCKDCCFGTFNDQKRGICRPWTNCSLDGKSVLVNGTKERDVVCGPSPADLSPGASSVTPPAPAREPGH
Quantity kind: OD450

4-1BB-39 (VHH, not shown: small tags and cut ends) VHH: QVQLGSLGGGSAQPGGSLRLSCTGSGNVYDFVVMGWYRQFPGRQRELVANITGRASPNYVDSVKGRFTISRDNAQNTVHLQMNNLKVEDSAIYYCYAAQQLTTIAGVMTLDYWGSGTQVTVSS : 0.059

[A] 4-1BB-36 (VHH, not shown: small tags and cut ends) VHH: EVQLVESGGGLVQPGGSLRLSCAASRRTFSSYTAGWFRQAPGKEREFVASIRWISGTTTYADSVNGRFTISRDIAKNTVYLQMNSLKPDDTAVYYCAVDLSSDNDYDYWGQGTQVTVSS
[B] 4-1BB-10 (VHH, not shown: small tags and cut ends) VHH: EVQLVESGGGLVQAGGSLRLSCAASGAIFSYNGMAWYRQAPGKQREFVAVITPDGTTKYGDSVKGRFTISRDITKNTVDLEMNSLKPEDTAVYTCAALRNSGSTSWGQGTQVTVSS
[C] 4-1BB-2 (VHH, not shown: small tags and cut ends) VHH: QVQLVESGGGLVQAGGSLRLSCAASGSIFSYNAMAWYRQAPGKQRELVALITSDRTTKYADSVKGRFTISRDDTKNTVDLEMNSLKPEDTAVYTCAALLNSARTSWGQGTQVTVSS
[D] 4-1BB-56 (VHH, not shown: small tags and cut ends) VHH: QVQLVESGGGLVQTGGSLRLSCAASGRISTIDTMFWYRQTPGKERDWVAFIPKDGLPTYVDSVKGRFTVSRDNARNTVYLQMNGLKPEDTAVYYCAVDVQEDRMRTYWGQGTQVTVSS
Order the entries by their reported OD450, beginning at the minimum. # answer = labels listed in requested order C, B, A, D
(C: 0.059, B: 0.11, A: 0.202, D: 1.69)

[a] 4-1BB-1 (VHH, not shown: small tags and cut ends) VHH: QVQLVESGGGLVQAGGSLRLSCAASENIFSFNAMAWYRQAPGKQRELVALITGDGTTKYADSVKGRFTIARLNAKNTVNLEMNSLKPEDTAVYTCAALRNSDRTSWGQGTQVTVSS
[b] 4-1BB-3 (VHH, not shown: small tags and cut ends) VHH: EVQLVESGGGLVQAGGSLRLSCAASGNIFSYNGMAWYRQAPGNQRELVAVVAIDGTAKYADTVKGRFTISRDNIKNTVNLEMNSLKPEDTAVYTCAALRNSGSTSWGQGTQVTVSS
When a and b are compared, which has the higher number for OD450? Which one? Tell me its label. a
